# test-system: indoleamine 2,3-dioxygenase (IDO) (Homo sapiens, UniProt P14902)
# Construct: replaced with media containing IFNγ (#285-IF/CF, R&D Systems) at a final concentration of 25 ng/mL; endogenous in cells; host or cells: HeLa (ATCC CCL-2), IFN-gamma stimulated
# Sequence (P14902 whole entry): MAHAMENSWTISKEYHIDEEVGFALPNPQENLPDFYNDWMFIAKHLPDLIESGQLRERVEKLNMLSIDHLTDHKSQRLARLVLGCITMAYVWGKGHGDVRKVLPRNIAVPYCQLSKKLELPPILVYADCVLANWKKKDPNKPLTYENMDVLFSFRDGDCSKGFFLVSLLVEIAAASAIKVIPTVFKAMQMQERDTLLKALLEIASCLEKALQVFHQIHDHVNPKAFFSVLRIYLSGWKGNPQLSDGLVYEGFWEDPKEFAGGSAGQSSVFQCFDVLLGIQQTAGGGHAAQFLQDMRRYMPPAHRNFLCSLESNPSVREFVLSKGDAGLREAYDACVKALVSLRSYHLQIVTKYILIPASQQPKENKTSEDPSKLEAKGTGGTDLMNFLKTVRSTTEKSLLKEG
# run-description: HeLa cell-based indoleamine 2,3-dioxygenase (IDO) assay, kynurenine production
# reported-conditions: HeLa cells, IFNγ 25 ng/mL, 48 hour incubation; read-out: IDO Hela IC50 class (A < 50, B < 250, C < 2000)
pIC50: −log10 of the molar value.
quantity-name: pIC50

Req: Give indoleamine 2,3-dioxygenase (IDO) (Homo sapiens, UniProt P14902) pIC50 for CC[C@H](c1ccc([C@@H](COC)CC(=O)O)cc1Nc1ccc(COC)nc1)N1CCOCC1 (relative stereo)
Resp: 5.70 to 6.60

Req: Give indoleamine 2,3-dioxygenase (IDO) (Homo sapiens, UniProt P14902) pIC50 for CCO[C@H](c1ccc([C@@H](CC)CC(=O)O)cc1Nc1ccc(C#N)cc1)C(F)(F)F (single isomer, unassigned)
Resp: > 7.30

Req: Give indoleamine 2,3-dioxygenase (IDO) (Homo sapiens, UniProt P14902) pIC50 for CCO[C@@H](c1ccc([C@@H](COC)CC(=O)O)cc1Nc1cnc(C)nc1)C(F)(F)F
Resp: 5.70 to 6.60

Req: Give indoleamine 2,3-dioxygenase (IDO) (Homo sapiens, UniProt P14902) pIC50 for CC[C@H](CC(=O)O)c1ccc([C@@H](OC)C(F)(F)F)c(Nc2ccc(C#N)cc2)c1 (relative stereo)
Resp: > 7.30

Req: Give indoleamine 2,3-dioxygenase (IDO) (Homo sapiens, UniProt P14902) pIC50 for CCO[C@H](c1ccc([C@H](CC)CC(=O)O)cc1Nc1ccc(C#N)cc1)C(F)(F)F (single isomer, unassigned)
Resp: > 7.30

Req: Give indoleamine 2,3-dioxygenase (IDO) (Homo sapiens, UniProt P14902) pIC50 for CCO[C@@H](c1ccc([C@H](CC)CC(=O)O)cc1Nc1ccc(C#N)cc1)C(F)(F)F (single isomer, unassigned)
Resp: > 7.30

* * *

For each of the compounds below, state its pIC50.
# test-system: indoleamine 2,3-dioxygenase (IDO) (Homo sapiens)
# Construct: replaced with media containing IFNγ (#285-IF/CF, R&D Systems) at a final concentration of 25 ng/mL; endogenous in cells; host or cells: HeLa (ATCC CCL-2), IFN-gamma stimulated
# run-description: HeLa cell-based indoleamine 2,3-dioxygenase (IDO) assay, kynurenine production
# reported-conditions: HeLa cells, IFNγ 25 ng/mL, 48 hour incubation; read-out: IDO Hela IC50
Lab note: report pIC50 as minus log10 of the concentration in molar units, number only.

Req: Give indoleamine 2,3-dioxygenase (IDO) (Homo sapiens) pIC50 for CCO[C@@H](c1ccc([C@@H](CC)CC(=O)O)cc1NC(=O)Nc1ccc(C)cc1)C(F)(F)F (single isomer, unassigned) [Example 41]
Resp: 7.70

Req: Give indoleamine 2,3-dioxygenase (IDO) (Homo sapiens) pIC50 for CCOc1ncc(Nc2cc([C@@H](CC)CC(=O)O)ccc2[C@H](OCC)C(F)(F)F)cn1 (single isomer, unassigned) [Example 45]
Resp: 7.52

Req: Give indoleamine 2,3-dioxygenase (IDO) (Homo sapiens) pIC50 for CCOc1ncc(Nc2cc([C@@H](CC)CC(=O)O)ccc2[C@H](CC)N2CCOCC2)cn1 (single isomer, unassigned) [Example 118-2]
Resp: 6.37

Req: Give indoleamine 2,3-dioxygenase (IDO) (Homo sapiens) pIC50 for CCO[C@H](c1ccc([C@H](CC)CC(=O)O)cc1Nc1cnc(C)nc1)C(F)(F)F (relative stereo) [Example 17]
Resp: 6.89

Req: Give indoleamine 2,3-dioxygenase (IDO) (Homo sapiens) pIC50 for CC[C@@H](CC(=O)O)c1ccc([C@@H](CC)N2CCOCC2)c(Nc2ccc(Cl)cc2)c1 (single isomer, unassigned) [Example 132]
Resp: 7.15

Req: Give indoleamine 2,3-dioxygenase (IDO) (Homo sapiens) pIC50 for CCc1ncc(Nc2cc([C@H](CC)CC(=O)O)ccc2[C@H](CC)C2CCOCC2)cn1 (single isomer, unassigned) [Example 128]
Resp: 6.92
